From: patent US20180065968A1

Target system: rat DHODH (Rattus norvegicus, UniProt Q63707)
Sequence (Q63707 whole entry): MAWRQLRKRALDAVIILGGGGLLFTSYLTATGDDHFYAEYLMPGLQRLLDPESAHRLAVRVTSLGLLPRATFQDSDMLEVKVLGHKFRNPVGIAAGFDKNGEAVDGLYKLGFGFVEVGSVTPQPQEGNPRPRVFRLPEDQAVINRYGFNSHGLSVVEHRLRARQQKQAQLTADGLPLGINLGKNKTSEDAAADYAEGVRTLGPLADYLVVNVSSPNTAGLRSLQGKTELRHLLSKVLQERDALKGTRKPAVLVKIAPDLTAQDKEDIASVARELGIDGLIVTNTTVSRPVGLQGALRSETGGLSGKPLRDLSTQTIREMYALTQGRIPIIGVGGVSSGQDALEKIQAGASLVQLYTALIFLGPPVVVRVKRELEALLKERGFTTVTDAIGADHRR
Measurement protocol: Recombinant DHODH inhibition, DCIP dye-based assay
Study conditions: fourth value of cell, read-out: h/d/m/r DHODH (r)
A collection of compounds and their measured pIC50
A value of pIC50 is the negative decimal logarithm of a concentration given in moles per litre.

Check out these entries, answers already filled in.
Cc1cc(Nc2ccc(C(F)(F)F)nc2)n2nc(C(F)(F)F)nc2n1 | 5.08
Cc1cc(Nc2ccc(C(F)(F)F)nc2)n2nc(C(C)(F)F)nc2n1 [Reference 1] | 5.36
Cc1cc(Nc2ccc(C(F)(F)F)cc2)n2nc(C(C)(F)F)nc2n1 [Reference 3] | 5.14
Cc1nc2nc(C(C)(F)F)nn2c(Nc2ccc(C(F)(F)F)nc2)c1F | 4.80

Return pIC50 measured with rat DHODH (Rattus norvegicus, UniProt Q63707) given this compound: Cc1cc(Nc2ccc(C(F)(F)F)nc2)n2nc(C(C)(F)F)nc2n1 [Compound (1)]
4.62
